Assay: Volume of distribution at steady state in cynomolgus monkey at 0.3 mg/kg, iv administered as single dose by LC-MS/MS analysis
Type: ADME, organism-based, Macaca fascicularis
Settings: in vivo, read-out: Vdss
reported metric: Vd (L/kg)
Write down the numeric answer in L/kg and omit the unit.

Reported Vd for O=C(CC12CCC(C(=O)O)(CC1)C2)N1CCc2c(n(Cc3ccc(F)cc3)c3ncccc23)C1 : what is it? 2.27

----------
Assay: Clearance in Beagle dog at 0.3 mg/kg, iv administered as single dose by LC-MS/MS analysis
Type: ADME, organism-based, Canis lupus familiaris
Settings: in vivo
reported metric: clearance (mL/min/kg)
Write down the numeric answer in mL/min/kg and omit the unit.

Reported clearance for O=C(CC12CCC(C(=O)O)(CC1)C2)N1CCc2c(n(Cc3ccc(F)cc3)c3ncccc23)C1 : what is it? 4.7
